FYI, the data here is from ChEMBL document CHEMBL1961873.

Measured inhibition values are reported for all entries that follow.
# Target System: Inhibitor of nuclear factor kappa-B kinase subunit epsilon (Homo sapiens) (UniProt Q14164);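 also: reported values are averaged percent inhibition figures against human IKKε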
# Sequence (Q14164 whole entry): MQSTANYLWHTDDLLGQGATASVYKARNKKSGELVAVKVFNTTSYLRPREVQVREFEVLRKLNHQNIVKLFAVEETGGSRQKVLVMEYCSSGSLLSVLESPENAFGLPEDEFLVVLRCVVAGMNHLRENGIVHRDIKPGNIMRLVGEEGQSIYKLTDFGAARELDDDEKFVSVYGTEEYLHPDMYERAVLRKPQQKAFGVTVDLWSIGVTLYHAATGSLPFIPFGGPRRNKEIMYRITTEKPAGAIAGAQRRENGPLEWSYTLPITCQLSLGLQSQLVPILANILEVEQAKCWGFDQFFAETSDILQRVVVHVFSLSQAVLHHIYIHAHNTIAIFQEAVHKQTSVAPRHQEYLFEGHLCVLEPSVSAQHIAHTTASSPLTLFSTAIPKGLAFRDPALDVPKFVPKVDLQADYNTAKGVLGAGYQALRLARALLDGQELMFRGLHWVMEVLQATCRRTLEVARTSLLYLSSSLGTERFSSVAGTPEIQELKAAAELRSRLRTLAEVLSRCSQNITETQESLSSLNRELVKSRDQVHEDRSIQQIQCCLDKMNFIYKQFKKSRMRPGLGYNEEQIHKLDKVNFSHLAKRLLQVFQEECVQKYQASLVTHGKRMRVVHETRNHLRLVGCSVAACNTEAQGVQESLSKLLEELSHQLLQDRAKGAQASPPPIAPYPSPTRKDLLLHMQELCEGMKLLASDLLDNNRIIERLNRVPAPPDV
# Condition Parameters: at 1 µM

{"Mol": "COc1cc2ncn(-c3cc(OCc4ccccc4Cl)c(C(N)=O)s3)c2cc1OC", "Target System": "Inhibitor of nuclear factor kappa-B kinase subunit epsilon (Homo sapiens) (UniProt Q14164)", "inhibition": "2.71%"}
{"Mol": "Cc1ccc(NC(=O)c2ccnc(N3CCCC3)c2)cc1-c1ccc(C(=O)NCC2CC2)cc1", "Target System": "Inhibitor of nuclear factor kappa-B kinase subunit epsilon (Homo sapiens) (UniProt Q14164)", "inhibition": "5.3%"}
{"Mol": "COc1cc2ncn(-c3cc(OCc4ccccc4C(F)(F)F)c(C(N)=O)s3)c2cc1OC", "Target System": "Inhibitor of nuclear factor kappa-B kinase subunit epsilon (Homo sapiens) (UniProt Q14164)", "inhibition": "5.84%"}

---

# Target System: Vascular endothelial growth factor receptor 2 (Homo sapiens) (UniProt P35968);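 also: each value is the mean percent inhibition of KDR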
# Sequence (P35968 whole entry): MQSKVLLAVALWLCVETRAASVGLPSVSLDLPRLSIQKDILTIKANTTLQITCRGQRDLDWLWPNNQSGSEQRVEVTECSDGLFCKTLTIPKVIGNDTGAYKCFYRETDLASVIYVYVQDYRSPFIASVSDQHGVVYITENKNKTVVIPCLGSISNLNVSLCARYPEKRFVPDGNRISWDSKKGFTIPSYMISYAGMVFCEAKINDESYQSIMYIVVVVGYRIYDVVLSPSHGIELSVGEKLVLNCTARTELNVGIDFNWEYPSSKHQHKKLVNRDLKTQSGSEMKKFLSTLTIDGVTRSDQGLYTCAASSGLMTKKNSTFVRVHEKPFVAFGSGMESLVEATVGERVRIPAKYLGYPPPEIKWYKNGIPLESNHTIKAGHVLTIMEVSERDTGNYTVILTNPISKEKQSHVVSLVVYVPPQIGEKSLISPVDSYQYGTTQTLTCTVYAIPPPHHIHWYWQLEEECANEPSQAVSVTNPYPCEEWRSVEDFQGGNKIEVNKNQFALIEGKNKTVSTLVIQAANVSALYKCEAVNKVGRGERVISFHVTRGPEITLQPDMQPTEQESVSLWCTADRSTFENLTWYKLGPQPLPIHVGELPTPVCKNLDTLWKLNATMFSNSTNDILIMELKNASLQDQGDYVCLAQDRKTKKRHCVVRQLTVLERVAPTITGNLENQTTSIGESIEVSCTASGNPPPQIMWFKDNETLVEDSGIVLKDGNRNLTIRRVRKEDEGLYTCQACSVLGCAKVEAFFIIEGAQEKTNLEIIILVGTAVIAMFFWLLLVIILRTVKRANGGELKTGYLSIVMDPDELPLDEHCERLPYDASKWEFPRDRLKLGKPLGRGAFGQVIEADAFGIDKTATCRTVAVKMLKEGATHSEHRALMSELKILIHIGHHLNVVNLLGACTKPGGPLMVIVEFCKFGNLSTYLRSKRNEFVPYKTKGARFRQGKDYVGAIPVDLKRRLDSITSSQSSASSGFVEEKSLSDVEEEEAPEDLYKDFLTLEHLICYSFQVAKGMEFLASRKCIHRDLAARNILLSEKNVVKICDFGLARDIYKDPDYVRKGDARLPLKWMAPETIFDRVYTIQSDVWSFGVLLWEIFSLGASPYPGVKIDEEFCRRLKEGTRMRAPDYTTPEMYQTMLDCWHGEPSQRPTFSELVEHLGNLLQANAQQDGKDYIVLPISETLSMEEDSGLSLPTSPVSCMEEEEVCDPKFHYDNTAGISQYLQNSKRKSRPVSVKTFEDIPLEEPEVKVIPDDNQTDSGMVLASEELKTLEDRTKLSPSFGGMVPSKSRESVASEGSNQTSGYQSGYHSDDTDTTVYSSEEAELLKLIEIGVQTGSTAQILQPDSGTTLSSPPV
# Condition Parameters: at 1 µM
Criterion: inhibition meeting or surpassing 8%. Met: T. Not met: F.

{"Compound": "COc1ccccc1Nc1ncc(-c2ccccc2)o1", "Group Label": "T"}
{"Compound": "Cc1ccc(C(=O)NC2CCCCC2)cc1-c1ccc(C(=O)NCC2CC2)cc1", "Group Label": "T"}
{"Compound": "O=C1NC(=O)C(c2ccccc2Cl)=C1Nc1cccc(O)c1", "Group Label": "F"}
{"Compound": "NCc1ccc(-c2nc(-c3ccc(Cl)c(O)c3)c(-c3ccncc3)[nH]2)cc1", "Group Label": "T"}
{"Compound": "NC(=O)c1ccc(-c2nc(-c3ccccn3)c(-c3ccc4c(c3)OCO4)[nH]2)cc1", "Group Label": "F"}
{"Compound": "NS(=O)(=O)c1cccc(-c2ccc3c(NC(=O)C4CC4)n[nH]c3c2)c1", "Group Label": "F"}
{"Compound": "COc1ccc(-c2ccncc2)cc1C(N)=O", "Group Label": "T"}
{"Compound": "COc1cc2c(cc1Nc1nc(N3CCc4ccccc43)c3cc[nH]c3n1)N(C(=O)CN(C)C)CC2", "Group Label": "F"}
{"Compound": "COc1cc2ncn(-c3cc(O[C@@H](C)c4ccccc4Cl)c(C(N)=O)s3)c2cc1OC", "Group Label": "T"}
{"Compound": "COc1ccc2cc(-c3c(-c4ccncc4)nc(-c4ccc([S+](C)[O-])cc4)n3C)ccc2c1 (stereo not given)", "Group Label": "T"}

---

# Target System: Tyrosine-protein kinase Blk (Homo sapiens) (UniProt P51451);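 also: reported value is the mean percent inhibition of BLK kinase activity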
# Sequence (P51451 2-505 limits assumed): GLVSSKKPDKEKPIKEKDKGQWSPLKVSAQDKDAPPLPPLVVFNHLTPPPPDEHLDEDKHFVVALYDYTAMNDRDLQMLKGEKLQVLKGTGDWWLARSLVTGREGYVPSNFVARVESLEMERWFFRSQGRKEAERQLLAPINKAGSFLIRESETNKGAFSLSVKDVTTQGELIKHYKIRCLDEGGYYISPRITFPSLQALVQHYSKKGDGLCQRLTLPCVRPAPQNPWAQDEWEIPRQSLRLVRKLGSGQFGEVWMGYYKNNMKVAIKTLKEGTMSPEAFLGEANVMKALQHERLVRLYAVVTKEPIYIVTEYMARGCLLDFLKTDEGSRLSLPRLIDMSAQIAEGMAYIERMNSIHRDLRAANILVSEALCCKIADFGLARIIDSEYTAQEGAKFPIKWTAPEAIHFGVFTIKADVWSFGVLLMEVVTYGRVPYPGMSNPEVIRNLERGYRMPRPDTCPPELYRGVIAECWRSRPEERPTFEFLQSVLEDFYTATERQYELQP
# Condition Parameters: at 0.1 µM
Measured inhibition values are reported for all entries that follow.
Assay Readout: inhibition (%)

{"Molecule": "CCCN1CCC(Oc2cc(Nc3nc(Nc4cccc(F)c4C(N)=O)c4cc[nH]c4n3)c(OC)cc2Cl)CC1", "Assay Readout": "inhibition", "Meas Value": 0.32}
{"Molecule": "CCn1c(-c2nonc2N)nc2c(C#CC(C)(C)O)nc(OC[C@@H](N)c3ccccc3)cc21", "Assay Readout": "inhibition", "Meas Value": 0.59}
{"Molecule": "O=C(Nc1n[nH]c2nc(-c3ccco3)c(Br)cc12)C1CC1", "Assay Readout": "inhibition", "Meas Value": 3.07}
{"Molecule": "Nc1nc(-c2ccccn2)c(-c2ccc3ncccc3n2)s1", "Assay Readout": "inhibition", "Meas Value": 2.58}
{"Molecule": "c1cnn2ncc(-c3ccnc(Nc4ccc5c(c4)OCCO5)n3)c2c1", "Assay Readout": "inhibition", "Meas Value": 3.13}
{"Molecule": "CS(=O)(=O)Nc1ccc(N/C=C2\\C(=O)Nc3ccccc32)cc1", "Assay Readout": "inhibition", "Meas Value": 0.62}
{"Molecule": "Fc1cccc(COc2ccc(Nc3ncnc4cc(-c5ccc[nH]5)sc34)cc2Cl)c1", "Assay Readout": "inhibition", "Meas Value": -2.62}
{"Molecule": "COc1cc2ncn(-c3cc(O[C@@H](C)c4ccccc4Cl)c(C(N)=O)s3)c2cc1OC", "Assay Readout": "inhibition", "Meas Value": 11.1}
{"Molecule": "CCn1c(-c2nonc2N)nc2c(N3CCCC3)nccc21", "Assay Readout": "inhibition", "Meas Value": -1.15}
{"Molecule": "CCn1c(-c2nonc2N)nc2ccncc21", "Assay Readout": "inhibition", "Meas Value": 0.68}
{"Molecule": "N#Cc1c(NC(=O)c2cccc3ccccc23)sc2c1CCCC2", "Assay Readout": "inhibition", "Meas Value": 1.28}
{"Molecule": "COc1cccc(-n2ncc3c(N/N=C/c4cccc(F)c4)ncnc32)c1", "Assay Readout": "inhibition", "Meas Value": -0.8}
{"Molecule": "COc1ccc2cc(-c3c(-c4ccncc4)nc(-c4ccc([S+](C)[O-])cc4)n3C)ccc2c1 (stereo not drawn)", "Assay Readout": "inhibition", "Meas Value": 1.88}
{"Molecule": "CS(=O)(=O)CCNCc1nc(-c2ccc3ncnc(Nc4ccc(F)c(Cl)c4)c3c2)cs1", "Assay Readout": "inhibition", "Meas Value": 1.92}
{"Molecule": "CN(C)c1cc2c(Nc3ccc4nc(Cc5ccccc5)[nH]c4c3)ncnc2cn1", "Assay Readout": "inhibition", "Meas Value": 5.31}
{"Molecule": "Cc1cccc(-c2n[nH]cc2-c2ccc3ncccc3n2)n1", "Assay Readout": "inhibition", "Meas Value": 1.31}
{"Molecule": "CCn1c(-c2nonc2N)nc2cncc(C(=O)N3CC[C@H](N)C3)c21", "Assay Readout": "inhibition", "Meas Value": 2.69}
{"Molecule": "Fc1cccc(COc2ccc(Nc3ncnc4sc(-c5cccs5)cc34)cc2Cl)c1", "Assay Readout": "inhibition", "Meas Value": 1.15}
{"Molecule": "Cc1nn(C)c2cc(N(C)c3ccnc(Nc4cccc(S(N)(=O)=O)c4)n3)ccc12", "Assay Readout": "inhibition", "Meas Value": 5.53}
{"Molecule": "COC(=O)Nc1nc2cc(Oc3ccc(NC(=O)Nc4cccc(C(=O)O)c4)cc3)ccc2[nH]1", "Assay Readout": "inhibition", "Meas Value": -1.59}
{"Molecule": "CC(C)=Cc1cccc2c1/C(=N/Nc1ccc(S(N)(=O)=O)cc1)C(=O)N2", "Assay Readout": "inhibition", "Meas Value": 3.01}
{"Molecule": "COC(=O)Nc1nc2cc(Oc3cccc(NC(=O)Nc4cc(C(F)(F)F)ccc4F)c3)ccc2[nH]1", "Assay Readout": "inhibition", "Meas Value": -0.47}
{"Molecule": "COc1ccccc1Nc1ncc(-c2ccccc2)o1", "Assay Readout": "inhibition", "Meas Value": 4.5}
